# TARGET: His-Brd4(44-477) (Homo sapiens (Human), UniProt O60885)
# METHOD NOTES: TR-FRET in-vitro binding assay for BRD4
# RUN CONDITIONS: biochemical
# Procedure: TR-FRET In-Vitro Binding Assays for BRD2, BRD3, and BRD4: All assays were performed in 384-well microtiter plates. Each assay plate contained 8-point serial dilutions for 40 test compounds, plus 16 high- and 16 low controls. […] After minutes incubation at 30° C., plates were measured in a Perkin Elmer EnVision multilabel reader. […]
OBSERVATION TYPE: log10 IC50 (log10 of the value in nM)

- Cc1ncccc1-n1nc(C)c2c1C(=O)N(c1cc(C)c(=O)n(C)c1)C2c1ccc(Cl)cc1 (stereo not shown): 1.83
- Cc1nn(C2CC2)c2c1C(c1ccc(Cl)cc1)N(c1cc(Cl)c(=O)n(C)c1)C2=O (racemic): 2.18
- Cn1cc(N2C(=O)c3nn(C4CC4)c(C(F)(F)F)c3C2c2ccc(Cl)cc2)cc(Cl)c1=O (stereo not shown): 2.34
- Cc1nn(-c2ccnn2C)c2c1[C@@H](c1ccc(Cl)cc1)N(c1cc(C)c3nnc(C)n3c1)C2=O: 1.40
- Cc1cc(N2C(=O)c3nn(C4CC4)c(C)c3C2c2ccc(Cl)cc2)cn(C)c1=O (stereo not shown): 1.94
- Cc1c2c(nn1C)C(=O)N(c1ccc(=O)n(C)c1)C2c1ccc(Cl)cc1 (stereo not shown): 2.60
- CCc1nn(-c2ccnn2C)c2c1C(c1ccc(Cl)cc1)N(c1cc(C)c(=O)n(C)c1)C2=O (stereo not shown): 1.67
- CCn1nc2c(c1C)C(c1ccc(Cl)cc1F)N(c1cc(C)c3nnc(C)n3c1)C2=O (stereo not shown): 1.84
- COc1ncccc1-n1nc(C)c2c1C(=O)N(c1cc(C)c(=O)n(C)c1)[C@H]2c1ccc(Cl)cc1: 3.76
- Cc1[nH]nc2c1C(c1ccc(Cl)cc1)N(c1ccc(=O)n(C)c1)C2=O (stereo not shown): 2.23
- CCc1nn(C2CC2)c2c1[C@H](c1ccc(Cl)cc1)N(c1cc(C)c3nnc(C)n3c1)C2=O: 3.34
- Cc1cc(N2C(=O)c3nn(C)c(O)c3C2c2ccc(Cl)cc2)cn(C)c1=O (stereo not shown): 2.32
- Cc1cc(N2C(=O)c3nn(C4CN(C)C4)c(C)c3C2c2ccc(Cl)cc2)cn2c(C)nnc12 (stereo not shown): 1.91
- CCc1nn(-c2cnc(OC)nc2OC)c2c1C(c1ccc(Cl)cc1)N(c1cc(C)c(=O)n(C)c1)C2=O (stereo not shown): 2.15
- COc1ncccc1-n1nc(C)c2c1C(=O)N(c1cc(C)c3nnc(C)n3c1)C2c1ccc(Cl)cc1F (stereo not shown): 1.46
- COc1ncc(-n2nc3c(c2C(C)C)C(c2ccc(Cl)cc2)N(c2cc(C)c4onc(C)c4c2)C3=O)c(OC)n1 (stereo not shown): 1.94

====

# TARGET: His-Brd3(20-477) (Homo sapiens (Human), UniProt Q15059)
# Sequence (Q15059 20-477): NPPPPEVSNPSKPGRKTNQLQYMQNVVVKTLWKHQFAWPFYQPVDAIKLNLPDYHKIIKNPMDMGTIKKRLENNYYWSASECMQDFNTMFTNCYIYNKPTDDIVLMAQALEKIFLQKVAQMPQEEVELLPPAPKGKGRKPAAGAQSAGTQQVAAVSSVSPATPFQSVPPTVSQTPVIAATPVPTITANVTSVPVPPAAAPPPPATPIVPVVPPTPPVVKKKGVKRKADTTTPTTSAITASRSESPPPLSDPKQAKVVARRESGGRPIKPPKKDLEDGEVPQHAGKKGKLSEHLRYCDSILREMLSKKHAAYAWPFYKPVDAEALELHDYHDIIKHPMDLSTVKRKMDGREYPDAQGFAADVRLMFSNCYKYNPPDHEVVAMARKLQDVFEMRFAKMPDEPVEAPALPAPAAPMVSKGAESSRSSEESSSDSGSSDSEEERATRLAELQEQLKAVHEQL
# METHOD NOTES: TR-FRET in-vitro binding assay for BRD3
# RUN CONDITIONS: biochemical
pIC50: −log10 of the molar value.
Parameter: pIC50. Scope: all listed entries.
OBSERVATION TYPE: pIC50

- CCOc1c2c(nn1C)C(=O)N(c1cc(C)c(=O)n(C)c1)C2c1ccc(Cl)cc1 (stereo not shown): 7.00
- Cc1nn(C2CN(C)C2)c2c1C(c1ccc(Cl)cc1)N(c1cc(C)c(=O)n(C)c1)C2=O (stereo not shown): 6.36
- CNC(=O)n1nc2c(c1C)C(c1ccc(Cl)cc1)N(c1cc(C)c(=O)n(C)c1)C2=O (stereo not shown): 6.85
- CNC(=O)n1nc2c(c1C)C(c1ccc(Cl)cc1)N(c1cc(C)c3nnc(C)n3c1)C2=O (stereo not shown): 6.70
- Cc1noc2ccc(N3C(=O)c4nn(C)c(C)c4C3c3ccc(Cl)cc3)cc12 (stereo not shown): 6.04
- Cc1nn(C2CC2)c2c1[C@@H](c1ccc(Cl)cc1F)N(c1cc(C)c3nnc(C)n3c1)C2=O: 7.60
- COc1ncccc1-n1nc2c(c1C)C(c1ccc(Cl)cc1F)N(c1cc(C)c3nnc(C)n3c1)C2=O (stereo not shown): 7.19
- Cc1cc(N2C(=O)c3nn(C4CNC4)c(C)c3C2c2ccc(Cl)cc2)cn2c(C)nnc12 (stereo not shown): 6.96
- CCc1nn(C2CC2)c2c1C(c1ccc(Cl)cc1)N(c1cc(OC)c3nnc(C)n3c1)C2=O (stereo not shown): 7.21
- Cc1cc(N2C(=O)c3nn(C(C)C)cc3C2c2ccc(Cl)cc2)cn(C)c1=O (stereo not shown): 7.07
- Cc1c2c(nn1C)C(=O)N(c1ccc(=O)n(C)n1)C2c1ccc(Cl)cc1 (stereo not shown): 6.05
- Cc1cc(N2C(=O)c3c(c(CF)nn3C3CC3)C2c2ccc(Cl)cc2)cn2c(C)nnc12 (stereo not shown): 7.30
- Cc1nn(-c2ccnn2C)c2c1C(c1ccc(Cl)cc1)N(c1cc(C)c3nnc(C)n3n1)C2=O (stereo not shown): 7.43
- CNc1cc(N2C(=O)c3c(c(C)nn3C3CC3)[C@H]2c2ccc(Cl)cc2)nn2c(C)nnc12: 7.62
- Cc1cc(N2C(=O)c3nn(C)c(C)c3C2c2ccc(Cl)cc2)cn(C)c1=O (stereo not shown): 6.80
- CNC(=O)n1nc(C)c2c1C(=O)N(c1cc(C)c(=O)n(C)c1)C2c1ccc(Cl)cc1 (stereo not shown): 6.57
- Cc1nn(C(C)C)c2c1C(c1ccc(Cl)cc1F)N(c1cc(C)c3nnc(C)n3c1)C2=O (stereo not shown): 7.52
- COc1ncc(-n2nc3c(c2C(C)C)C(c2ccc(Cl)cc2)N(c2ccc4onc(C)c4c2)C3=O)c(OC)n1 (stereo not shown): 6.52
- Cc1nn(-c2ccnn2C)c2c1[C@@H](c1ccc(Cl)cc1)N(c1cc(C)c3nnc(C)n3c1)C2=O: 7.49
- CC(=O)N1CC(n2nc(C)c3c2C(=O)N(c2cc(C)c4nnc(C)n4c2)C3c2ccc(Cl)cc2)C1 (stereo not shown): 6.92
- Cc1c2c(nn1C)C(=O)N(c1ccc(=O)n(C)c1)C2c1ccc(Cl)cc1 (stereo not shown): 6.28
- Cc1cc(N2C(=O)c3nn(C)c(O)c3C2c2ccc(Cl)cc2)cn(C)c1=O (stereo not shown): 6.70
- Cc1nn(C[C@H](O)C(F)(F)F)c2c1[C@@H](c1ccc(Cl)cc1)N(c1cc(C)c3nnc(C)n3c1)C2=O: 7.35
- Cc1nn(C(C)C)c2c1[C@@H](c1ccc(Cl)cc1)N(c1cc(C)c(=O)n(C)c1)C2=O: 7.82
- CCc1c2c(nn1C1CC1)C(=O)N(c1cc(C)c(=O)n(C)c1)C2c1ccc(Cl)cc1 (stereo not shown): 7.40
- Cc1nn(-c2ccnn2C)c2c1C(c1ccc(Cl)cc1)N(c1cc(C)c3nnc(C)n3c1)C2=O (stereo not shown): 7.55
- COc1ncccc1-n1nc(C)c2c1C(=O)N(c1cc(C)c3nnn(C)c3n1)C2c1ccc(Cl)cc1 (stereo not shown): 7.57
- Cc1cc(N2C(=O)c3nn(C)cc3[C@H]2c2ccc(Cl)cc2)cn(C)c1=O: 7.18
- Cc1nn(-c2ccnn2C)c2c1[C@H](c1ccc(Cl)cc1)N(c1cc(C)c(=O)n(C)c1)C2=O: 5.27
